# target_under_test: Nuclear receptor subfamily 1 group I member 2 (Homo sapiens) (UniProt O75469)
# Sequence (O75469 whole entry, looked up): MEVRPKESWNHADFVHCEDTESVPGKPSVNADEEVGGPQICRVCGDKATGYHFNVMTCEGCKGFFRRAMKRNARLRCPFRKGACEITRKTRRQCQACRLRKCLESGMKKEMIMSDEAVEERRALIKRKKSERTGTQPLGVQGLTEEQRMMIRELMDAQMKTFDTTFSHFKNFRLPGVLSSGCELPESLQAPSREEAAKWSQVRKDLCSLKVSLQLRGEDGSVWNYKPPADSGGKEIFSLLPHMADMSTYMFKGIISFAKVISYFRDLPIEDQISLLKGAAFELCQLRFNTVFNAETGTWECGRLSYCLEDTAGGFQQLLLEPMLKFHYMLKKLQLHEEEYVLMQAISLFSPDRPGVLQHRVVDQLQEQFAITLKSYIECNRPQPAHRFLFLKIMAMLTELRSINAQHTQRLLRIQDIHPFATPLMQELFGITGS
# protocol_text: Human pregnane X receptor (PXR) small molecule agonists, qHTS assay (AID 1346982); note: % is set by controls: 0 for no effect and ±100 for the full control effect; nearly all actives have a fitted effect of over 35% in size
# setup_conditions: PXR-Luc HepG2, CYP3A4 luciferase reporter, 24 h; series mostly up to 92.4 µM
Records with an inconclusive call do not appear. The source made the active and inactive calls. Calls come from the whole dose curve; as a rule, active = well fitted activation curve with a large enough effect in the repeat runs; inconclusive = weak or mixed curves; inactive = no such curve, though single readings can be large or run the other way.
In this exercise, the only acceptable responses are 1 (yes) (active), 0 (no) (inactive)

- compound: "CCCCCCCCS(=O)(=O)Cl"
  target_under_test: "Nuclear receptor subfamily 1 group I member 2 (Homo sapiens) (UniProt O75469)"
  label: "0 (no)"
- compound: "CN1C(=O)N(C)C(O)C1O (stereo not given)"
  target_under_test: "Nuclear receptor subfamily 1 group I member 2 (Homo sapiens) (UniProt O75469)"
  label: "0 (no)"
- compound: "O=C[C@H](O)[C@@H](O)[C@H](O)[C@H](O)CO"
  target_under_test: "Nuclear receptor subfamily 1 group I member 2 (Homo sapiens) (UniProt O75469)"
  label: "0 (no)"
- compound: "CC(=O)CC(C)(C)C1CCCCC1"
  target_under_test: "Nuclear receptor subfamily 1 group I member 2 (Homo sapiens) (UniProt O75469)"
  label: "0 (no)"

Any idea what this test logged for `COC(=O)CCSCCC(=O)OC` ?
0 (no)

Please do the same for `Cc1sccc1Br` as well.
0 (no)

Please do the same for `Cc1cc2c(cc1S(N)(=O)=O)S(=O)(=O)CCC2` as well.
0 (no)

----------
# protocol_text: qHTS assay to test for compound auto fluorescence at 460 nm (blue) in HepG2 cells (AID 720687); note: % is set by controls: 0 for no effect and ±100 for the full control effect
# setup_conditions: autofluorescence 405/460 nm, 1 h; series mostly up to 46 µM
The source made the active and inactive calls. The call rests on the fitted dose curve; in most records, active means well fitted curve in the direction sought with a large enough effect in the repeat runs; inconclusive means weak or mixed curves; inactive means flat fitted curve, though single readings scatter.
value_type: fluorescence, % of fluorescent control

Below are worked cases with known answers.
- compound: "CN(C)CCCN1c2ccccc2CCc2ccc(Cl)cc21"
  value_type: "fluorescence, % of fluorescent control"
  value_measured: "inactive"
- compound: "CC(=O)OC/C=C(\\C)CC/C=C(\\C)CCC=C(C)C"
  value_type: "fluorescence, % of fluorescent control"
  value_measured: "inactive"
- compound: "CCN1CCC[C@H]1CNC(=O)c1cc(S(N)(=O)=O)ccc1OC"
  value_type: "fluorescence, % of fluorescent control"
  value_measured: "inactive"
- compound: "COc1ccc(CCN(C)CCCC(C#N)(c2cc(OC)c(OC)c(OC)c2)C(C)C)cc1OC (stereo not drawn)"
  value_type: "fluorescence, % of fluorescent control"
  value_measured: "inactive"
- compound: "OC(CCN1CCCCC1)(c1ccccc1)C1CC2C=CC1C2 (stereo not drawn)"
  value_type: "fluorescence, % of fluorescent control"
  value_measured: "inactive"
- compound: "CCN1CCC[C@H]1CNC(=O)c1c(O)c(Cl)cc(Cl)c1OC"
  value_type: "fluorescence, % of fluorescent control"
  value_measured: "inactive"
- compound: "CC(C)CCCC(C)N (stereo not drawn)"
  value_type: "fluorescence, % of fluorescent control"
  value_measured: "inactive"
- compound: "Cc1ccc(C#N)cc1"
  value_type: "fluorescence, % of fluorescent control"
  value_measured: "inactive"

Item `C[C@](N)(Cc1ccc(O)cc1)C(=O)O` has what recorded fluorescence, % of fluorescent control?
inactive

Please do the same for COCCc1ccc(OCC(O)CNC(C)C)cc1 (stereo not drawn) as well.
inactive

Please do the same for `COC(=O)c1cc(C(=O)OC)cc(S(=O)(=O)O)c1` as well.
inactive

Please do the same for `O=C[C@H](O)[C@@H](O)[C@H](O)[C@H](O)CO` as well.
inactive

Please do the same for `CC(C)(C)c1ccc(O)c(O)c1` as well.
inactive

----------
# target_under_test: Thyrotropin-releasing hormone receptor (Homo sapiens)
# protocol_text: qHTS assay to identify small molecule agonists of the thyrotropin-releasing hormone receptor (TRHR) signaling pathway (AID 1346891);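 note: HEK293 cells expressing TRHR with calcium dye readout; % is set by controls: 0 for no effect and ±100 for the full control effect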
# setup_conditions: TRHR-HEK293 calcium fluorescence, agonist mode; series mostly up to 57.6 µM
# Source text: National Center for Advancing Translational Sciences [NCATS] NIH Chemical Genomics Center [NCGC] U.S. Environmental Protection Agency [EPA] National Institutes of Environmental Health Sciences [NIEHS] National Toxicology Program [NTP] […] A compound/drug can either activate (agonist) or suppress (antagonist) GPCRs that can be monitored by levels of intracellular calcium. […]
Activity calls are given as the source filed them. Calls follow the shape of the full dose curve.
value_type: activation

- compound: "Nc1c2c(nc3ccccc13)CCCC2O (stereo unspecified)"
  activation: "inactive"
- compound: "CCCC(=O)O[C@]1(C(=O)CO)CC[C@H]2[C@@H]3CCC4=CC(=O)CC[C@]4(C)[C@H]3[C@@H](O)C[C@@]21C"
  activation: "inactive"
- compound: "O=C(O)c1ccccc1OP(=O)(O)O"
  activation: "inactive"
- compound: "NCCCNCCSP(=O)(O)O"
  activation: "-0.402% [at 5.23 µM] (inactive)"
- compound: "CC(C)NCCCC1(C(N)=O)c2ccccc2-c2ccccc21"
  activation: "inactive"

Lab note: next compound to report on.
Item `CN(C)CCCN1c2ccccc2CCc2ccc(Cl)cc21` has what recorded activation?
inactive

----------
# protocol_text: qHTS assay to identify small molecule antagonists of the vitamin D receptor (VDR) signaling pathway - cell viability counter screen (AID 743225); note: % is set by controls: 0 for no effect and ±100 for the full control effect; nearly all actives have a fitted effect of over 50% in size
# setup_conditions: VDR-bla HEK293T viability, CellTiter-Glo luminescence, 16 h; series mostly up to 61 µM
Records with an inconclusive call do not appear. Active and inactive are the calls of the source. Calls follow the shape of the dose curve; as a rule, active = well fitted cell-killing curve with a large enough effect in the repeat runs; inconclusive = weak or mixed curves, or effect the other way; inactive = no such curve, though single readings can be large or run the other way.
value_type: viability change, negative = cytotoxic

Below are worked cases with known answers.
- compound: "CCOC(=O)c1c(C)n(C)c2ccc(O)cc12"
  viability change, negative = cytotoxic: "inactive"
- compound: "CCS(=O)(=O)c1ccc(OC)c(C(=O)OC)c1"
  viability change, negative = cytotoxic: "inactive"
- compound: "CC(C)(C)c1nnc(NS(=O)(=O)c2ccccc2)s1"
  viability change, negative = cytotoxic: "inactive"
- compound: "COC(=O)[C@@H](N)Cc1ccc(O)c(O)c1"
  viability change, negative = cytotoxic: "inactive"
- compound: "Cc1c(O)cccc1O"
  viability change, negative = cytotoxic: "inactive"

Item `NS(=O)(=O)c1ccc(C(=O)O)cc1` has what recorded viability change, negative = cytotoxic?
inactive

Please do the same for `O=C(CCCN1CCN(c2ccccn2)CC1)c1ccc(F)cc1` as well.
inactive

Please do the same for `OC[C@]1(O)OC[C@@H](O)[C@H](O)[C@@H]1O` as well.
inactive

Please do the same for `C1CN(CCOCCN2CCOCC2)CCO1` as well.
inactive

Please do the same for `O=c1n(CCO)c(=O)n(CCO)c(=O)n1CCO` as well.
inactive

Please do the same for `O=C(O)CNC(=O)c1ccc([N+](=O)[O-])cc1` as well.
inactive

Please do the same for `CN(C)CCCSc1ccccc1NC(=O)/C=C/c1ccccc1` as well.
inactive

Please do the same for `C=CCS(=O)(=O)O` as well.
inactive

Please do the same for `CCCCCCOC(=O)CCCCC(=O)OCCCCCC` as well.
inactive

----------
# target_under_test: Androgen receptor (Homo sapiens) (UniProt P10275)
# Sequence (P10275 whole entry, looked up): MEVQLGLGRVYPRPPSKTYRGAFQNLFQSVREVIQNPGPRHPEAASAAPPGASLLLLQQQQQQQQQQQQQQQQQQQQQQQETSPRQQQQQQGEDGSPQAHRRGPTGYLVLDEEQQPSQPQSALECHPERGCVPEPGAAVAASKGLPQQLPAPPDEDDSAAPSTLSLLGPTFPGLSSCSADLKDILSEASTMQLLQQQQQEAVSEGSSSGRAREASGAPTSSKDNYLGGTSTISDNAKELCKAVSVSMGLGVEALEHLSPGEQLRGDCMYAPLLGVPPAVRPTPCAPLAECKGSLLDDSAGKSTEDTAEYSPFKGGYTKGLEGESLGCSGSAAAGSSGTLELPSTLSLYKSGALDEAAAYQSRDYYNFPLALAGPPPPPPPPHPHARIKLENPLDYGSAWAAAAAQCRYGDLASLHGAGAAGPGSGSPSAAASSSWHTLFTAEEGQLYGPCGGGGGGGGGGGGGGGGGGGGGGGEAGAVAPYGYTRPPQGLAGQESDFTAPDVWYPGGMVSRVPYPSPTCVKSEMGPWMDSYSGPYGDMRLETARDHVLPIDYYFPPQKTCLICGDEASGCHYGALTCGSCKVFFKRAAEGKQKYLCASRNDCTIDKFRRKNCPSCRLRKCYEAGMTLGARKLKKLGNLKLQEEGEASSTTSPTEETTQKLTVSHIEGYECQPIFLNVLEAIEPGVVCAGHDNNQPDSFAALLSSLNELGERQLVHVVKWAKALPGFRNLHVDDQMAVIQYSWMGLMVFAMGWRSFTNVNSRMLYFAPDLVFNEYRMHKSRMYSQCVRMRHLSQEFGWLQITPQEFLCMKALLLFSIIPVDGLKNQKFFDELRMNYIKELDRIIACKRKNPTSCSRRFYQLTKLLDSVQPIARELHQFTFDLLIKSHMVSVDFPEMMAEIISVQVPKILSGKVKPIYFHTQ
# protocol_text: qHTS assay to identify small molecule agonists of the androgen receptor (AR) signaling pathway in the presence of an antagonist (AID 1259381); note: nearly all actives have a fitted effect of over 15% in size
# setup_conditions: MDA-kb2 MMTV-luciferase, AR agonist + nilutamide, 16 h; series mostly up to 42.5 µM
Active and inactive are the calls of the source. The call rests on the fitted dose curve.
In this exercise, the only acceptable responses are yes (1) for active, no (0) for inactive

- compound: "CCn1ccnc1CC1COc2ccccc2O1 (centres undefined)"
  label: "no (0)"
- compound: "O=C1CC2CC1C1CCCC21 (centres undefined)"
  label: "yes (1)"
- compound: "CCCCNC(=O)NCCCC"
  label: "no (0)"
- compound: "O=C(c1ccccc1)C1CCCCC1"
  label: "no (0)"
- compound: "CCn1nc(C(=O)O)c(=O)c2cc3c(cc21)OCO3"
  label: "no (0)"

Any idea what this test logged for CC1(C)C(O)C(C)(C)C1O (centres undefined) ?
no (0)

Please do the same for `CCSC(=O)N(CC(C)C)CC(C)C` as well.
no (0)

Please do the same for `CS(=O)(=O)O` as well.
no (0)

Please do the same for `O=S(O)CO` as well.
no (0)

Please do the same for NS(=O)(=O)c1cc2c(cc1Cl)NC(C1CC3C=CC1C3)NS2(=O)=O (centres undefined) as well.
no (0)

Please do the same for `CC(C)(CC(=O)O)C(=O)O` as well.
no (0)

----------
# target_under_test: Androgen receptor (Homo sapiens) (UniProt P10275)
# protocol_text: qHTS assay to identify small molecule agonists of the androgen receptor (AR) signaling pathway (AID 743036); note: % is set by controls: 0 for no effect and ±100 for the full control effect
# setup_conditions: HEK293 AR-UAS-bla GripTite, beta-lactamase FRET ratio, 16 h; series mostly up to 62.4 µM
Inconclusive results are not listed. Calls of active or inactive are those of the source. Calls come from the whole dose curve; as a rule, active = well fitted activation curve with a large enough effect in the signal ratio in the repeat runs, with a control signal flat (not every such curve was filed as active); inconclusive = weak or mixed curves, or effect the other way; inactive = no such curve, though single readings can be large or run the other way; the % refers to the signal ratio.

- compound_structure: "CC(=O)OCC(CCn1cnc2cnc(N)nc21)COC(C)=O"
  outcome: "inactive"
- compound_structure: "COC(=O)[C@@H](N)Cc1ccc(O)c(O)c1"
  outcome: "inactive"
- compound_structure: "CCSC(=O)N(CC(C)C)CC(C)C"
  outcome: "inactive"
